Target Of Assay: bovine vesicular acetylcholine transporter (VAChT) (Bos taurus)
Sequence (E1BK36 1-524): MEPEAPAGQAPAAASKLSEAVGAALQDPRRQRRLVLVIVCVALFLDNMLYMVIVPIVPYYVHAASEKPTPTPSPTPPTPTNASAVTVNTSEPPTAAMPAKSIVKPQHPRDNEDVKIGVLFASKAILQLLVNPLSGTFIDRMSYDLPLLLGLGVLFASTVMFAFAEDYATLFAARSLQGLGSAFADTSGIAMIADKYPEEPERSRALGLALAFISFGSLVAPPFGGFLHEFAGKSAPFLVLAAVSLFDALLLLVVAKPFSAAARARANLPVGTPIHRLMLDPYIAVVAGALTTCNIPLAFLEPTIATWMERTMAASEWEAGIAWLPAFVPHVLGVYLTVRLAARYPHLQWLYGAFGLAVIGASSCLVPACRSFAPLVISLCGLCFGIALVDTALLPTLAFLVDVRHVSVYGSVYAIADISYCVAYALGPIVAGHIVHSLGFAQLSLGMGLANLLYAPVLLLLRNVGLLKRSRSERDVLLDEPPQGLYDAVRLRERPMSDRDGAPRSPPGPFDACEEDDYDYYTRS
Assay Method Text: Radioligand Binding Assay
Test Parameters: Bovine binding Ki, CHO-K1 membranes with recombinant bovine VAChT, [3H]Compound X6 0.3 nM
Readout Type: pKi
Convention used: pKi is expressed as -log10 of the molar concentration.

Item under review: O=C(NCc1ccnc(Cl)c1)N1CC2(CCN(C/C=C/c3ccc(C(F)(F)F)cc3)CC2)c2ccc(C(F)(F)F)cc21 [Example 138] . Reported pKi?
7.24

Now try O=C(NCc1ccnc(Cl)c1)N1CC2(CCN(C/C=C/c3ccc(Cl)c(Cl)c3)CC2)c2c1cccc2C(F)(F)F [Example 56] .
6.36

Now try O=C(NCC1CCCO1)N1CC2(CCN(C/C=C/c3ccc(Cl)c(Cl)c3)CC2)c2c1ccc1scnc21 (racemic) [Example 34] .
6.33

Now try Cn1ncc2c3c(ccc21)N(C(=O)NCc1ccnc(Cl)c1)CC31CCN(C/C=C/c2ccc(C(F)(F)F)cn2)CC1 [Example 53] .
5.71

Now try O=C(NCc1ccnc(Cl)c1)N1CC2(CCN(C/C=C/c3ccc(Cl)cc3)CC2)c2c(SC(F)(F)F)cccc21 [Example 89] .
6.11

Now try O=C(NCc1ccnc(Cl)c1)N1CC2(CCN(C/C=C/c3ccc(Cl)cc3)CC2)c2c(Br)cccc21 [Example 156] .
7.15

Now try Cc1noc(C)c1-c1ccc2c(c1)C1(CCN(C/C=C/c3ccc(Cl)cc3)CC1)CN2C(=O)NCc1ccnc(Cl)c1 [Example 187] .
5.61

Now try O=C(NCc1ccnc(F)c1)N1CC2(CCN(C/C=C/c3ccc(Cl)cc3)CC2)c2c1cc(Cl)c(F)c2Cl [Example 61] .
6.17

Now try O=C(NCc1ccnc(Cl)c1)N1CC2(CCN(C/C=C/c3ccc(Cl)cc3)CC2)c2c1ccc(Cl)c2Cl [Example 144] .
7.58

Now try O=C(NCc1ccc(F)cc1)N1CC2(CCN(C/C=C/c3ccc(Cl)c(Cl)c3)CC2)c2c1ccc1scnc21 [Example 16] .
5.13

Now try O=C(NCc1ccnc(Cl)c1)N1CC2(CCN(C/C=C/c3ccc(Cl)c(Cl)c3)CC2)c2c1ccc1c2OCCO1 [Example 11] .
6.75

Now try O=C(NCc1ccnc(F)c1)N1CC2(CCN(C/C=C/c3ccc(Cl)c(Cl)c3)CC2)c2cc(Br)ccc21 [Example 104] .
7.36

Now try O=C(NCc1ccnc(Cl)c1)N1CC2(CCN(C/C=C/c3ccc(Cl)cc3)CC2)c2c(F)cc(C(F)(F)F)cc21 [Example 122] .
7.49

Now try O=C(NCc1ccnc(Cl)c1)N1CC2(CCN(C/C=C/c3ccc(Cl)c(Cl)c3)CC2)c2cc(OC(F)(F)F)ccc21 [Example 55] .
6.06

Now try N#Cc1ccc(-c2ccc3c(c2)C2(CCN(C/C=C/c4ccc(C(F)(F)F)cc4)CC2)CN3C(=O)NCc2ccnc(Cl)c2)cn1 [Example 120] .
4.86
